assay: molar heat capacity at constant pressure; details: 313.15 K; 101.33 kPa; Liquid; Small sample (50 mg) DSC
Metric: molar heat capacity at constant pressure (J/K/mol)

1. CCCCCCCC[n+]1ccn(C)c1.NC(=O)C[C@H](N)C(=O)[O-] [1-methyl-3-octylimidazolium L-asparaginate] :: 670.78
2. CCCCCCCC[n+]1ccn(C)c1.C[C@H](N)C(=O)[O-] [1-methyl-3-octylimidazolium L-alaninate] :: 609.08
3. CCCCCCCCn1cc[n+](C)c1.NCC(=O)[O-] [1-methyl-3-octylimidazolium glycinate] :: 518.04
4. CCCCCCCCn1cc[n+](C)c1.O=C([O-])[C@@H]1CCCN1 [1-methyl-3-octyl-1H-imidazol-3-ium L-prolinate] :: 578.89
5. CCCCCCCC[n+]1ccn(C)c1.N[C@@H](CO)C(=O)[O-] [1-methyl-3-octyl-1H-imidazol-3-ium L-serinate] :: 614.69

----------
conditions: 313.15 K; 101.33 kPa; Liquid
Metric: viscosity (mPa·s)

1) CCCCCCCCn1cc[n+](C)c1.NCC(=O)[O-] [1-methyl-3-octylimidazolium glycinate] :: 137.9
2) CCCCCCCC[n+]1ccn(C)c1.C[C@H](N)C(=O)[O-] [1-methyl-3-octylimidazolium L-alaninate] :: 184.6
3) CCCCCCCC[n+]1ccn(C)c1.N[C@@H](CO)C(=O)[O-] [1-methyl-3-octyl-1H-imidazol-3-ium L-serinate] :: 536.2

(P) CCCCCCCCn1cc[n+](C)c1.O=C([O-])[C@@H]1CCCN1 [1-methyl-3-octyl-1H-imidazol-3-ium L-prolinate]
(Q) CCCCCCCC[n+]1ccn(C)c1.NC(=O)C[C@H](N)C(=O)[O-] [1-methyl-3-octylimidazolium L-asparaginate]
Hey, which is lower on measured viscosity, P or Q ? Lab note: record the label of whichever item you select. P

----------
conditions: 303.15 K; Liquid; Pendant drop shape
Metric: surface tension liquid-gas (mN/m)

1) CCCCCCCCn1cc[n+](C)c1.NCC(=O)[O-] [1-methyl-3-octylimidazolium glycinate] :: 33.98
2) CCCCCCCC[n+]1ccn(C)c1.NC(=O)C[C@H](N)C(=O)[O-] [1-methyl-3-octylimidazolium L-asparaginate] :: 33.7
3) CCCCCCCCn1cc[n+](C)c1.O=C([O-])[C@@H]1CCCN1 [1-methyl-3-octyl-1H-imidazol-3-ium L-prolinate] :: 28.88
4) CCCCCCCC[n+]1ccn(C)c1.N[C@@H](CO)C(=O)[O-] [1-methyl-3-octyl-1H-imidazol-3-ium L-serinate] :: 32.8
5) CCCCCCCC[n+]1ccn(C)c1.C[C@H](N)C(=O)[O-] [1-methyl-3-octylimidazolium L-alaninate] :: 27.9

----------
assay: molar heat capacity at constant pressure; settings: 303.15 K; 101.33 kPa; Liquid; Small sample (50 mg) DSC
Metric: molar heat capacity at constant pressure (J/K/mol)

1. CCCCCCCCn1cc[n+](C)c1.NCC(=O)[O-] [1-methyl-3-octylimidazolium glycinate] :: 511.67
2. CCCCCCCCn1cc[n+](C)c1.O=C([O-])[C@@H]1CCCN1 [1-methyl-3-octyl-1H-imidazol-3-ium L-prolinate] :: 569.53
3. CCCCCCCC[n+]1ccn(C)c1.N[C@@H](CO)C(=O)[O-] [1-methyl-3-octyl-1H-imidazol-3-ium L-serinate] :: 607.97
4. CCCCCCCC[n+]1ccn(C)c1.NC(=O)C[C@H](N)C(=O)[O-] [1-methyl-3-octylimidazolium L-asparaginate] :: 662.93
5. CCCCCCCC[n+]1ccn(C)c1.C[C@H](N)C(=O)[O-] [1-methyl-3-octylimidazolium L-alaninate] :: 600.95
